# System: 786-0
# assay_summary: NCI tumour cell line growth inhibition, 48 h
The source made the active and inactive calls. No stated cut-off is given here; in the data, active = GI50 up to about 1.1 µM and inactive = higher.
Entry note: the call must match one of active, inactive

Illustrative cases are given below, each with its answer.
CCC(C(=O)C(=O)OC)P1(=O)OC(C)(C)CN1C(C)(C)C (configuration not stated) ... inactive
COc1cc(CC2C(=O)OCC2Cc2ccc(OC)c(OC)c2)ccc1O (configuration not stated) ... inactive
COc1cccc(Nc2nc(N)nc(N)c2N=O)c1 ... inactive
CC(Cc1ccc(O)cc1)NCC(O)c1ccc(O)c(O)c1 (configuration not stated) ... inactive

Query: Call for entry O=C(O)C1=CNC(C(=O)O)=NN1 :
Result: inactive

Query: Per the assay record, what outcome was assigned to CCOC(=O)Nc1cc2ccccc2c(/N=N/c2ccccc2)c1O ?
Result: inactive

Query: Per the records of this test, what outcome belongs to COCc1nc2c(OC)c(-c3nc4ccc(N5CCN(C)CC5)cc4[nH]3)cc(OC)c2[nH]1 ?
Result: inactive

Query: Name the outcome recorded for COc1cc(/C=C2\CCC/C(=C\c3cc(OC)c(O)c(OC)c3)C2=O)cc(OC)c1O in the assay.
Result: inactive

Query: Which outcome was entered for the compound O=C(/C=C1/Nc2ccc([N+](=O)[O-])cc2N/C1=C/C(=O)c1ccc(Cl)cc1)c1ccc(Cl)cc1 in this test?
Result: inactive

Query: Which outcome was entered for the compound O=C(c1nc2ccc(Cl)cc2nc1O)C(O)c1ccccc1 (configuration not stated) in this test?
Result: inactive

Where these numbers come from: ChEMBL document CHEMBL1201862
